protocol-details: yeast display, Sf9 membrane polyspecificity reagent, FACS + sequencing; frameworks hold sequencing errors
measured-metric: polyreactivity (PSR sort gate)

sequence	experimental-result
QVQLVESGGGLVQAGGSLRLSCAASGSIFGWYVMGWYRQEAGKERELVAANSSVGSTYYADSVKGRFTISRDNAKNTVYLQMNSLKPEDTAVYYCAKLRYPYLFWDDSEYWGQGTQVTVSS	low polyreactivity
QVQLVESGGGLVQAGGSLRLSCAASGRIFRRNAMGWYRQAPGKERELVAAISSSGGRTYYADSVKGRFTISRDNAKNTVYLQMNSLKPEDTAVYYCATRESLEPGYYWGQGTQVTVSS	high polyreactivity
QLQLVDSGGGLVQAGGRLSLSCAASGSIFYRYAMGWYIQAPGKERELVAAITSGGRTYYADSVKGRFTISRDNAKNTVYLQMNSLNPEDTAVYFCNAVYRKTSYGYWGQGTQVTVSS	high polyreactivity
QVRLVESGGGLVQAGGSLRLSCAASGSIFDVYAMGCYRQAPGKERELVATISYGDSSTYYADSVKGRFTISRDTAKNTVYLQMNSLKPEDTAVYYCAADYLTAPRWRQWGEMDYWGQGTQVTVSS	low polyreactivity
QVQLVESGGGLVQAGGSLRLSCAASGSTFSKYAMGCYRQAPGKERELVAAISSGGRTNYADSVKGRFTISRDNAKNTVYLQMNSLKPEDTAVYFCAALLGYWAYYYWGQGSQVTVSS	low polyreactivity

---

protocol-details: yeast display, Sf9 membrane polyspecificity reagent, FACS + sequencing; frameworks hold sequencing errors

sequence	polyreactivity (PSR sort gate)
QVQLVESGGGLVQAGGSLRLSCAASGFIFYRYAMGWYRQAPGKEREFVAVISRSGDRTNYADSVKGRFTISRDNAKNTVYLQMNSLKPEDTAVYYCNTDSRSAHGYWGQGTQVTVSS	high polyreactivity
QVQLVESGGGLVQAGGSLRLSCAASGFIFYVYAMGWYRQAPGKERELVAAISADGGITYYADSVKGRFTISRDNAKNSVYFQMNSLKPEDTAVYYCNTLGDQDAYAGFRLDYWGQGTQVTVSS	low polyreactivity
QVQLVESGGGLVQAGGSLRLSCAASGRTFKTYAMGWYRQAPGKERELVAAISRDGRTYYADSVKGRFTISRDNAMNTVYLQMNSLKPEDTAVYYCNKRSYRKGDYWGQGTQVTVSS	low polyreactivity
QVQLVESGGGLVQAGGSLRLSCAAAGLTFQPYVLGWYRQAPGKERELVAAISVRTTRTYYADSVKGRFTISRDNAKNTVYLQMNSLKPEDTAVYYCNVSGVLYPFVSYDYWGQGTHVTVSS	low polyreactivity
QVQLVESGGGLVQAGGSLRLSCAASGFILGRYAMGWYRQAPGKERELVAAISIGGRTNYADSVKGRFTISRDNAKNTVYLQMNSLKPEDTEVYYCAVDRYVTYSLSNSLYEYWGQGTQVTVSS	low polyreactivity
QVQLVESGGGLVQAGGSLRLSCAASGFTFSGYAMGWYRQAPGKERELVAAITRRGGSTYYADSVKGRFTISRDNAKNTVYLQMNSLKPEDTAVYYCAADSGYPWELDYWGQGTQVTVSS	low polyreactivity
QVQLVESGGGLVQAGGSLRLSCAASGSTFRKYAMGWYRQAPGKEREFVAAITWSTGTTYYADSVKGRFTISRDNAKNTVYLQMNSLKPEDTAVYYCNAAFWAPQAPCYYYWGQGTQVTVSS	low polyreactivity
QVQLVESGGGLDQAGGSLRLSCAASGTFSRNAMGWYRQAPGKERELLADISGGRSTDYADSVKGRFTISRDNAKNTVYLQMNSLKPEDTAVYYCAAYGYLWWEMDYWGQGTQVTVSS	high polyreactivity
QVQLVESGGGLVQAGGSLRLSCAASGSIFVSNAMGWYRQAPGKERELVAAISQSGGSTYYADSVKGRFTISRDNAKNTVYLQMNSLKPEDTAVYYCATPIRSGFRIYDYWGQGTQVTVSS	low polyreactivity
QVHLYESGGGLVQLGGSLRLSCAASGTIFDYYTMGWYSQAPGKEREFVAAIAYGTNTYYADSVKGRFSISRDNAKHTVFLLLYSLKPEDTAVYYCATVGPRGLYYYWGQGTQVTVSS	high polyreactivity
QDQLVESGGGLVQAGGSLRLSCAASGFTFTRNAMGWYRQAPGKERELVAAISRGGSTNYADSVKGRFTISRDNAKNTVYLQMNSLKPEDTAVYYCAKVRTRGTPGVDYYYWGQGTQVTVSS	high polyreactivity

---

protocol-details: yeast display, Sf9 membrane polyspecificity reagent, FACS + sequencing; frameworks hold sequencing errors
measured-metric: polyreactivity (PSR sort gate)

sequence	experimental-result
QVQLVESGGGLVQAGGSLRLSCAASGSTFKPYAMGWYRQAPGKERELVAAISRGTRTYADSVKGRFTITRDNAKNTVYLQMNSLKPEDTAVYYCAAEWRWIFGYHYEYDYWGQGTQVTVSS	low polyreactivity
QVQLEESGGGLVQAGGSLRLSCAASGRTFVYNAMGWYRQAPGKERELVAAITSGGRTYYADSVKGRFTISRDNAKNTVYLQMNSLKPEDTAVYYCAADHRGEYDYWGQGTQVTVSS	low polyreactivity

---

protocol-details: yeast display, Sf9 membrane polyspecificity reagent, FACS + sequencing; frameworks hold sequencing errors
measured-metric: polyreactivity (PSR sort gate)

sequence	measured-metric	experimental-result
QVQLVESGGGLVQAGGSLRLSCAASGLIFARNAMGWYRQAPGKERELVAAITYSGSRTYYADSVKGRFTISRDNAKNTVYLQMNSLKPEDTAVYYCAARHRYSAVTEYNYWGQGTQVTVSS	polyreactivity (PSR sort gate)	high polyreactivity
QVQLVESGGGLVQAGGSLRLSCAASRSIFGIYTMGWSRQEPGKERELVAAIKSGGSTNYADSVKGRFTITRDNAKNTVYLQMNSKKPEDTAVYYCNAYIHPPGPRVYSREYDYWGQGTQVTVSS	polyreactivity (PSR sort gate)	low polyreactivity
QVQLVESGGGLVQAGGSLRLSSAASGRIFVNYAMGSSRQAPGKERELVAAITSDGSTSYADSVNGRFTISRDNAKNTVFLEMNSLKPEDTAVYYCAKGQRDREEYDYWGQGTQVTVSS	polyreactivity (PSR sort gate)	low polyreactivity
QVQLVESGGGLVQAGGSLRLSCAASGSIFYLYAMGWYRQAPGKERELVADINWNGGTYYADSVKGRFTISRDNAKNTVYLQMNSLKPEDTAVYYCAAYYYPYEYDYWGQGTQVTVSS	polyreactivity (PSR sort gate)	high polyreactivity
QVQLVESGGGLGQAGGSLRLSCADSGRTFYKYAMGWYRQSPGKERDLVAAISGSGGSTFYADSVKGRFTISRDNAKNTVYLQMNSLKPEDTAVYYCAKYLRPRIGYRYYYWVQGTQVTVSS	polyreactivity (PSR sort gate)	high polyreactivity
QVQLVESGGGLVQAGGILRLSCAASGIISYDYDMGWYRPSPGKERELVAAISTSGGTTYYADSVKGRFTISRDNAKNTVYLQMNSLKPEDTAVYYCAADNYVGYHWYNYWGQGTQVTVSS	polyreactivity (PSR sort gate)	high polyreactivity
QVQRVESWGGLVQAGGSLRLSCAASGSIFDVYTMGWYRQAPGKERELVAAINTGGGSTYYADSVKGRFTISRDNAKNTVYFQMNSLKPEDTAVYYCAAQWWWKRPVRYEYWGQGTLVTVSS	polyreactivity (PSR sort gate)	low polyreactivity
QVQLVESGGGLVQAGGSLRLSCAASGRIFLVYAMGWYRQAPGKERELVAAITKRGGSTYYADSVKGRFTISRDNAKNTVYLQMNSLKPEDTAVYYCAADGYTRGYDYWGQGTQVTVSS	polyreactivity (PSR sort gate)	high polyreactivity
QVLLQESGGGLVQAGGSLRLSCAASGSIFLFYTMGWYRQAPVKEREFVAGITLGTTTYNADSVKGRFTISRDNVKNTVYLQMNSLKPEDTAVYYFAVAVGHYTEFWYWGQGTQVTMSS	polyreactivity (PSR sort gate)	high polyreactivity
QVQLVESGGGLVHAGGSLRLSCAASGSIFDFNAMGWYRQVPGKERELVAAITSGGSTNYADSVKGRFTISRDNAKNTVYLQMNSLKPEDTAVYYCAARPARGASQGGYVRPWWYDSWGQGTQVTVSS	polyreactivity (PSR sort gate)	low polyreactivity
QVQLVESGGGLVQAGGSLRLSCAASGRIFGAYTMGWYRQAPGKERELVAVISSRGTDTYYADSVKGRFTISRDNAKNTVYLQMNSLKPEDTAVYYCAKRWWYTTSPRRSGDYWGQGTQVTVSS	polyreactivity (PSR sort gate)	high polyreactivity
QVQLVESGGGLVQAGGSLRLSCAASGITFYSNAMGWYRQAPGKERELVAAISYRGGSTYYADSVKGRFTISRDNAKNTVYLQMNSLKPEDTAVYYCNKEVDWGWGRISYDSWGQGTQVTVSS	polyreactivity (PSR sort gate)	low polyreactivity
EVQLVESGAGLVQAVGSLRLSCYASGFIFGYNAMGWYRQAHGKERELVAAISSGGGNTYYADSVKGRFTISRDNAKNTVYLQMNSLKPEDTAVYYCAAPDPRRPRRGDSWGQGTQVTVSS	polyreactivity (PSR sort gate)	low polyreactivity
QVQLVESGGGLVQAGGSLRLSCAASGFIFIAYTMGWYRQAPGKERELVAAISSRGGRTYYADSVKGRFTISRDNAKNTVYLQMNSLKPEDTAVYYCAASYTYYSFGFGTDVRYGYWGQGTQVTVSS	polyreactivity (PSR sort gate)	high polyreactivity
QVQLVESGGGLVQAGGSVRLSCAASGNIFLRNAMGWYRQSPGKERELVAAIRRTGGSTYYADSVKGRFTISRDNAKTTVYLQMNSLKPEDTAVYYCAKRSYTGYEYWGQGTQVTVSS	polyreactivity (PSR sort gate)	low polyreactivity
QVQLVESGGGLVQAGGSLRLSCAASGSIFGVNAMGWYRQAPGKERELVAAISRGTSTSYADSVKGRFTISRDNAKNTVYLQMNSLKPEDTAVYYCAAEVYWRGWWYGYWGQGTQVTVSS	polyreactivity (PSR sort gate)	high polyreactivity
QVQLVESGGGLVQAGGSLRLSCAASGLTFAFYAMGWYRQAPGKEMELVARIRTSAITYYADSVKGSFTISRDNAKNTVYLQMNSLKPEDTAVYYCAAEEGRVFSGGYDYWGQGTQVTVSS	polyreactivity (PSR sort gate)	high polyreactivity
QVQLVESVGGLVQAGGNLRLSCAASGIIFSRYALGWYRQAPGKERELVAAITRSGGDTYYADSVKGRFTISRDHAKNTVYLQMNSLKPEDTAVYYCAADRTWYPWVATGYYWGHGTQVTVSS	polyreactivity (PSR sort gate)	low polyreactivity
QVQLVESGGGLVQAGGSLRLSCAASGSTFAVYAMGWYRQAPGKERELVATITGSGGSTYYADSVKGRFTISRDNAKNTVYLEMNSLKPEDTAVYYCAAEVVAWSLYEDFKTYDYWGQGTQVTVSS	polyreactivity (PSR sort gate)	low polyreactivity
QVQLVESGGGLVQAGGSLRLSCAASGRTFGYYAMGWYRQAPGKERELVAAINWRGDSTYYADSVKGRFTISRDNAKNTVYLQMNSLKPEDTAVYYCAALVRGYDRSIRMDYWGQGTQVTVSS	polyreactivity (PSR sort gate)	high polyreactivity
QVQLVESGGGLVQAGGSLRLSCAASGFTFSRYAMGWYRQAPGKERELVAAITLGGGNTYYADSVKGRFTISRDNAKYSVYLQMNSLKREDTSVYYCNAKFGIFGYRSGGYDYWGEGTQVTVSS	polyreactivity (PSR sort gate)	high polyreactivity
